Origin of the recorded values: ChEMBL document CHEMBL4513216

Below, each entry is listed alongside its reported cytotoxicity at 10 µM.
- protocolSummary: Toxicity liver stage against HepG2, at 10uM
- Assay type: cell-based
- Parameters: test concentration 10 uM, cell line HepG2-A16-CD81EGFP
- testConditions: human, HepG2-A16-CD81EGFP cells; read-out: INHIBITION
reportedEndpoint: cytotoxicity at 10 µM (%)

[[record]]
molecule = "CCn1ccnc1CN1CCCN(C(=O)Cc2ccc(C)s2)CC1"
numericvalue = -19

[[record]]
molecule = "CCc1ccc(CN2CCN(CCOC)[C@@H]3CS(=O)(=O)C[C@@H]32)cc1"
numericvalue = -5.72

[[record]]
molecule = "CN(CCc1cnn(C)c1)C(=O)Cn1c(=O)[nH]c2ccccc21"
numericvalue = 4.5

[[record]]
molecule = "Cc1ccc(C(N)c2cccc(S(C)(=O)=O)c2)c(C)c1 (stereo unspecified)"
numericvalue = -6.44

[[record]]
molecule = "CCc1ccc(C(COC)NC(=O)c2ccsc2)o1 (stereo unspecified)"
numericvalue = 1.57

[[record]]
molecule = "CN(C)c1ncccc1CNC(=O)N1CCCC1CN1CCCC1 (stereo unspecified)"
numericvalue = -12.4

[[record]]
molecule = "O=C1CCCCCN1Cc1nc(C2(c3ccc(F)cc3)CCOC2)no1 (stereo unspecified)"
numericvalue = 21.1

[[record]]
molecule = "COc1ccc(NC(=O)N2CCC(CSC)C2)cc1C (stereo unspecified)"
numericvalue = 3.36

[[record]]
molecule = "NC(=O)COc1cccc(C(=O)N2CCCC(n3cccn3)C2)c1 (stereo unspecified)"
numericvalue = -4.86

[[record]]
molecule = "CC(=O)N1CCc2ccc(NC(=O)c3cn(C)nn3)cc2C1"
numericvalue = 5.45

[[record]]
molecule = "CC(C)C(C)NC(=O)Nc1ccc(CS(=O)(=O)C(C)C)cc1 (stereo unspecified)"
numericvalue = -1.28

[[record]]
molecule = "CC(=O)N(Cc1ncc(C(C)C)o1)C1CCN(Cc2cc(C)no2)C1 (stereo unspecified)"
numericvalue = -5.89

[[record]]
molecule = "CN(C)CCN1CCC(CNCc2c[nH]nc2C(C)(C)C)CC1"
numericvalue = -3.21

[[record]]
molecule = "Cc1cc(C)cc(N(C)S(=O)(=O)c2cc(C(=O)O)cs2)c1"
numericvalue = -10.4

[[record]]
molecule = "Cc1cc(C)n(CC2CN(Cc3cscn3)CCO2)n1 (stereo unspecified)"
numericvalue = -2.68

[[record]]
molecule = "CCNC(=O)CN1CCN(c2ccnc3c(F)ccc(F)c23)CC1"
numericvalue = 11.7

